Molecular target: Inadl_9, Q8NI35
Sequence (Q8NI35 1530-1615): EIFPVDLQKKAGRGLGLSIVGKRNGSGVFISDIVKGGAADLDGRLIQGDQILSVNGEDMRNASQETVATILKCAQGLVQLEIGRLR
Experiment: holdup assay
Parameters: key: below the threshold = too weak to quantify, mostly under pKd 3.1 to 4
Settings: plain residues with an end cap or a label only (N-terminal biotin on a linker: ado-ado)
MEASURED_METRIC: pKd

1) PLPPEEESWV [GAS2L2, Q8NHY3] ... 4.34
2) SQPLLVHDDV [KIT, P10721] ... below the threshold
3) LVEEEEPMNL [HDAC7, Q8WUI4] ... below the threshold
4) GNDPDRGTSI [GRID2, O43424] ... below the threshold
5) VISSDDLTEL [CAPN6, Q9Y6Q1] ... below the threshold
6) SGDGKTSVWI [GJC1, P36383] ... 3.85
7) YAEKRMLTEV [KCNA6, P17658] ... below the threshold
8) GSQSQVETEA [FKBP4, Q02790] ... below the threshold
